Entry source: a melting point compilation (Tetko et al.)

Attribute measured: melting point

Cc1ccc(Nc2nnc(S)s2)cc1Cl 210 to 212 °C
NC(=O)c1sc2ccccc2c1N 217 to 219 °C
O=C(O)/C=C/c1ccc(OCc2ccccn2)cc1 210 to 212 °C
O=S(=O)(Cl)c1ccc(F)c2ncccc12 104 to 106 °C
O=C(O)c1cccc(-c2ncn[nH]2)c1 239 to 241 °C

Task: State the recorded melting point for this entry: "O=S(=O)(Cl)c1c(Cl)ccc2ccccc12"
Output: 65 to 67 °C

====

Listing: melting point of selected molecules

Worked examples, 5 molecules total:
CC(=O)Nc1cc(N)ccc1F 134 to 136 °C
Nc1c(F)cccc1-n1cncn1 103 to 105 °C
O=S(=O)(Cl)c1cc2c(cc1Cl)OCCO2 139 to 141 °C
O=C1CS/C(=C/C(=O)c2ccco2)N1 251 to 253 °C
COc1ccc(N)cc1OCc1ccc2ccccc2n1 106 to 108 °C

Now for another entry.
Task: Endpoint output: melting point of "O=C(c1ccsc1)N1CCCNCC1" . Value?
Output: 98 to 100 °C

====

Parameter melting point: see the listing below.

Recorded results for 3 compounds are shown here.
Compound	Result
Cc1ccc(NC(=O)CCl)c(Br)c1	169 to 171 °C
CC(C)(C)NC(=O)NC(=O)CCl	109 to 112 °C
O=[N+]([O-])c1ccc(OC2CCNCC2)cc1	97 to 99 °C

Now consider the entry below.
Task: melting point for "COc1ccc(C(=O)CCl)cc1Br" ?
Output: 85 to 87 °C

====

Reported melting point values follow for various molecules

Field: example entries. Status: answers known.
Molecule	Result
CCS(=O)(=O)NCCc1ccc(S(N)(=O)=O)s1	121 to 123 °C
O=C(O)c1cnc(Cc2ccc(F)cc2)s1	178 to 180 °C
Cc1cccc(N2C(=O)NC(CCC(=O)O)C2=O)c1 (centres undefined)	158 to 160 °C

Switching to the query record.
Task: Could you share which melting point value was measured for "CCNC(=O)Cn1ccc(N)n1" ?
Output: 124 to 126 °C

====

Attribute measured: melting point

// below: answered molecules
Molecule	Attribute measured	Result
COC(=O)c1cccc(S(N)(=O)=O)c1	melting point	131 to 133 °C
CC(O)c1ccc(-n2cncn2)cc1 (configuration not stated)	melting point	90 to 92 °C
CC(=O)Oc1ccc(C)cc1C(=O)O	melting point	154 to 156 °C
COC(=O)c1ccccc1CS(=O)(=O)F	melting point	89 to 91 °C
Ic1c[nH]c2ccncc12	melting point	171 to 173 °C

Task: Data request, read-out melting point, for "O=C(NCCO)c1cncc(Br)c1"
Output: 128 to 130 °C

Task: Endpoint output: melting point of "Nc1nc(-c2cccc(Cl)c2)ns1" . Value?
Output: 149 to 151 °C

====

Measured melting point values are reported for all entries that follow.

Compound	melting point
COc1ccc(-c2nc(C=O)cs2)cc1	97 to 99 °C
O=C(O)C1COc2ccccc21 (stereo unspecified)	101 to 103 °C
O=C(O)CCS(=O)c1ccc2c(c1)OCCCO2 (stereo unspecified)	114 to 116 °C

Please turn your attention to the following entry.
Task: # get_value(readout='melting point', item= "Cn1ncc2cn[nH]c2c1=O" )
Output: 246 to 248 °C

====

Attribute measured: melting point

A selection of reference data follows.
Compound	melting point
O=Cc1cn(-c2ccccc2)nc1-c1ccncc1	153 to 155 °C
CN(c1ccc(O)cc1)S(=O)(=O)c1ccccc1	131 to 133 °C

Here is another compound to look at.
Task: Need melting point of "Cc1cc(C(=O)O)c2[nH]ncc2c1" , thanks.
Output: 286 to 288 °C

====

Attribute measured: melting point

Task: Any idea what melting point was measured for "CNC(=O)c1ccc(C(=O)O)cn1" ?
Output: 263 to 265 °C

====

Reported melting point by item:

These solved cases illustrate the format of a correct answer.
Compound	Attribute measured	Result
NC1CN(S(=O)(=O)c2ccc3c(c2)OCCO3)C1	melting point	124 to 126 °C
COc1ccc(S(N)(=O)=O)cc1N	melting point	145 to 147 °C
CC1CSc2ccc(Cl)cc2NC1=O (stereo not drawn)	melting point	222 to 224 °C
Cc1sc2nc(-c3cccnc3)nc(Cl)c2c1-c1ccccc1	melting point	144 to 146 °C
O=C1CCCC(=O)N1c1ncc(Br)s1	melting point	139 to 141 °C

Task: Please give the measured melting point for this compound: "Cc1cc(F)ccc1-c1ccc(C(=O)O)cc1F"
Output: 189 to 191 °C

====

Attribute measured: melting point

Compound	melting point
CC(=O)Nc1ccc(-c2csc(N)n2)c(F)c1	204 to 206 °C
Nc1cc(-c2ccc(I)cc2)[nH]n1	186 to 188 °C
COc1ccc(CC(=O)NN)cc1	132 to 134 °C
COc1ccc2c(c1)NC(=O)CCC2	127 to 129 °C
Cc1cccc(OCCC(=O)O)c1	99 to 101 °C

Task: Any idea what melting point was measured for "CCc1ncncc1C(=O)O" ?
Output: 155 to 157 °C

Task: GET /values?readout=melting point&item= "Cc1ccc(-c2csc(N)n2)s1"
Output: 129 to 131 °C

Task: Any idea what its melting point is? The compound is "COc1cccc(-n2ccnc2S)c1"
Output: 149 to 151 °C

====

Attribute measured: melting point

Worked cases, answers included:
Molecule	melting point
CS(=O)(=O)c1ccc(C(N)=O)cc1	226 to 228 °C
N#Cc1cccc(NC(=O)NC2CC2)c1	139 to 141 °C
NS(=O)(=O)c1ccc2c(c1)OCO2	155 to 157 °C

Task: Could you tell me which melting point is on file for "NC(=O)Cc1ccccc1F" ?
Output: 158 to 160 °C

Task: I'd like to know its melting point. The molecule in question is c1ccc2nn(C3CCNC3)cc2c1 (stereo unspecified)
Output: 79 to 81 °C

Task: Requested field: melting point. Item: "Nc1ccc(Br)nc1Cl"
Output: 113 to 115 °C

====

Attribute measured: melting point

Some solved entries appear below for comparison.
Molecule	Attribute measured	Result
CC(C)Cc1ccc(-c2csc(N)n2)cc1	melting point	108 to 110 °C
Nc1nc(-c2ccccc2)c(-c2ccccc2)o1	melting point	150 to 152 °C
Cc1ccc(-c2cnc(-c3ccccc3C(=O)O)o2)cc1	melting point	219 to 221 °C
CC1CN(C(=O)OC(C)(C)C)CC(C)N1 (stereo not drawn)	melting point	64 to 66 °C

Task: What value of melting point has been reported for the following molecule? "Cc1cc(S(=O)(=O)Cl)c(C)cc1Br"
Output: 54 to 56 °C

Task: Looking for the measured melting point of "Cc1cc2c(n1-c1cccc(C(F)(F)F)c1)CCCC2=O" , can you help?
Output: 121 to 123 °C

Task: Bench note: what melting point did "CC(=O)Nc1ccc(S(=O)(=O)NCc2ccc(C(=O)O)cc2)cc1" show?
Output: 269 to 271 °C

Task: Consider the molecule shown here: "OCc1ccc(Oc2ccc(Br)cc2)c(F)c1" What is its recorded melting point?
Output: 68 to 70 °C

====

Attribute measured: melting point

Observe how each entry below is paired with its result.
Compound	Result
CNS(N)(=O)=O	49 to 51 °C
CC(C)(C)OC(=O)N1CC(OS(C)(=O)=O)C1	65 to 67 °C
O=C(O)C1Cc2ccccc2S1 (centres undefined)	107 to 109 °C
CCc1ccc(C(N)=S)cc1	47 to 51 °C
O=C(Nc1cn[nH]c1)OCC(F)(F)F	151 to 153 °C

Pending compound:
Task: What does the data say about its melting point? Entry: CC1(c2ccc(I)cc2)NC(=O)NC1=O (centres undefined)
Output: 265 to 267 °C

====

Reported melting point values follow for various molecules

Molecule	melting point
O=C(O)C1CC2CCCCC2N1C(=O)c1ccc(F)cc1 (stereo not given)	147 to 149 °C
O=C(O)c1ccc(S(=O)(=O)Cl)c(Cl)c1	199 to 201 °C
Cc1sc(N)nc1Cc1ccccc1	75 to 77 °C
CCNC(=O)c1cccc(O)c1	160 to 162 °C
Cc1cc(-c2cc(C(=O)O)c3c(C)noc3n2)c(C)o1	266 to 268 °C

Task: Data request, read-out melting point, for CNCC(O)CN1CCCC1=O (stereo not given)
Output: 88 to 90 °C

Task: Which melting point is reported for this molecule? "COC(=O)c1nc2n(n1)CCCN2"
Output: 173 to 175 °C

Task: Request the reported melting point associated with "Nc1ccc(Br)cc1-c1nc(C2CC2)no1"
Output: 123 to 125 °C

Task: melting point lookup needed for "O=C(O)c1cc(S(=O)(=O)Cl)cc(Cl)c1F" , thanks.
Output: 169 to 171 °C

Task: # input molecule: "CCOC(=O)c1csc(NC)n1" ; wanted: its melting point
Output: 115 to 117 °C
